Assay text: Pharmacokinetics study of KPT-335 in cats (i.v. injection, p.o. capsules and tablets; UPLC-MS/MS, non-compartmental analysis)
Type: in vivo
Conditions: both sexes, cat, plasma, po, 2 mg/kg, cats, tablet p.o. 2 mg/kg BW after feeding, 8 h, mean
Measure: concentration at 8 h (ng/mL)

O=C(/C=C\n1cnc(-c2cc(C(F)(F)F)cc(C(F)(F)F)c2)n1)NNc1ccccn1 [KPT-335]
126

* * *

Assay text: Pharmacokinetics study of KPT-335 in cats (i.v. injection, p.o. capsules and tablets; UPLC-MS/MS, non-compartmental analysis)
Format: in vivo
Conditions: male, plasma, iv, 1 mg/kg, male cats, i.v., Injection, 1 mg/kg BW; read-out: AUClast Value males
Measure: AUC(0-t) (ng·h/mL)

O=C(/C=C\n1cnc(-c2cc(C(F)(F)F)cc(C(F)(F)F)c2)n1)NNc1ccccn1
3290

* * *

Assay text: Pharmacokinetics study of KPT-335 in cats (i.v. injection, p.o. capsules and tablets; UPLC-MS/MS, non-compartmental analysis)
Format: in vivo
Conditions: male, plasma, po, 1 mg/kg, male cats, p.o., Capsule, Fasting, 1 mg/kg BW; read-out: Cmax Value males
Measure: Cmax (ng/mL)

O=C(/C=C\n1cnc(-c2cc(C(F)(F)F)cc(C(F)(F)F)c2)n1)NNc1ccccn1
237

* * *

Assay text: Pharmacokinetics study of KPT-335 in cats (i.v. injection, p.o. capsules and tablets; UPLC-MS/MS, non-compartmental analysis)
Format: in vivo
Conditions: both sexes, cat, plasma, po, 1 mg/kg, cats, tablet p.o. 1 mg/kg BW after feeding, 0.75 h, mean
Measure: concentration at 0.75 h (ng/mL)

O=C(/C=C\n1cnc(-c2cc(C(F)(F)F)cc(C(F)(F)F)c2)n1)NNc1ccccn1 [KPT-335]
257

* * *

Assay text: Pharmacokinetics study of KPT-335 in cats (i.v. injection, p.o. capsules and tablets; UPLC-MS/MS, non-compartmental analysis)
Assay type: in vivo
Conditions: both sexes, cat, plasma, po, 1 mg/kg, cats, tablet p.o. 1 mg/kg BW after fasting, 0.33 h, mean
Measure: concentration at 0.33 h (ng/mL)

O=C(/C=C\n1cnc(-c2cc(C(F)(F)F)cc(C(F)(F)F)c2)n1)NNc1ccccn1 [KPT-335]
77.5

* * *

Assay text: Pharmacokinetics study of KPT-335 in cats (i.v. injection, p.o. capsules and tablets; UPLC-MS/MS, non-compartmental analysis)
Assay type: in vivo
Conditions: both sexes, cat, plasma, po, 0.2 mg/kg, cats, capsule p.o. 0.2 mg/kg BW, 6 h, mean
Measure: concentration at 6 h

O=C(/C=C\n1cnc(-c2cc(C(F)(F)F)cc(C(F)(F)F)c2)n1)NNc1ccccn1
15.5 ng/mL

* * *

Assay text: Pharmacokinetics study of KPT-335 in cats (i.v. injection, p.o. capsules and tablets; UPLC-MS/MS, non-compartmental analysis)
Assay type: in vivo
Conditions: both sexes, cat, plasma, po, 1 mg/kg, cats, tablet p.o. 1 mg/kg BW after fasting, 1 h, mean; read-out: Plasma concentration Mean
Protocol: In this study, a parallel trial design was employed, 42 adult domestic cats (21 males and 21 females), aged 1 to 2 years and weighing 2.5 ± 0.25 kg. Cats were grouped by random number, with half male and female in each group, and all cats were determined to be systemically healthy during an initial screening visit 1 week prior to the experiment. They were acclimatized to the laboratory environment for 7 days before the study commenced. […]
Measure: concentration at 1 h (ng/mL)

O=C(/C=C\n1cnc(-c2cc(C(F)(F)F)cc(C(F)(F)F)c2)n1)NNc1ccccn1 [KPT-335]
227

* * *

Assay text: Pharmacokinetics study of KPT-335 in cats (i.v. injection, p.o. capsules and tablets; UPLC-MS/MS, non-compartmental analysis)
Assay type: in vivo
Conditions: both sexes, cat, plasma, po, 2 mg/kg, cats, capsule p.o. 2 mg/kg BW, 0.5 h, mean
Measure: concentration at 0.5 h (µg/mL)

O=C(/C=C\n1cnc(-c2cc(C(F)(F)F)cc(C(F)(F)F)c2)n1)NNc1ccccn1
0.0525

* * *

Assay text: Pharmacokinetics study of KPT-335 in cats (i.v. injection, p.o. capsules and tablets; UPLC-MS/MS, non-compartmental analysis)
Assay type: in vivo
Conditions: female, plasma, po, 2 mg/kg, female cats, p.o., Tablet, Feeding, 2 mg/kg BW; read-out: Cmax Value females
Measure: Cmax (ng/mL)

O=C(/C=C\n1cnc(-c2cc(C(F)(F)F)cc(C(F)(F)F)c2)n1)NNc1ccccn1
538

* * *

Assay text: Pharmacokinetics study of KPT-335 in cats (i.v. injection, p.o. capsules and tablets; UPLC-MS/MS, non-compartmental analysis)
Type: in vivo
Conditions: both sexes, plasma, iv, 1 mg/kg, cats, i.v., Injection, 1 mg/kg BW; read-out: Lambda_z (converted)
Measure: k el (s⁻¹)

O=C(/C=C\n1cnc(-c2cc(C(F)(F)F)cc(C(F)(F)F)c2)n1)NNc1ccccn1
5e-05

* * *

Assay text: Pharmacokinetics study of KPT-335 in cats (i.v. injection, p.o. capsules and tablets; UPLC-MS/MS, non-compartmental analysis)
Format: in vivo
Conditions: both sexes, plasma, po, 2 mg/kg, cats, p.o., Capsule, Fasting, 2 mg/kg BW; read-out: AUCINF_obs
Procedure: In this study, a parallel trial design was employed, 42 adult domestic cats (21 males and 21 females), aged 1 to 2 years and weighing 2.5 ± 0.25 kg. Cats were grouped by random number, with half male and female in each group, and all cats were determined to be systemically healthy during an initial screening visit 1 week prior to the experiment. They were acclimatized to the laboratory environment for 7 days before the study commenced. […]
Measure: AUC(0-inf) (ng·h/mL)

O=C(/C=C\n1cnc(-c2cc(C(F)(F)F)cc(C(F)(F)F)c2)n1)NNc1ccccn1
1850

* * *

Assay text: Pharmacokinetics study of KPT-335 in cats (i.v. injection, p.o. capsules and tablets; UPLC-MS/MS, non-compartmental analysis)
Assay type: in vivo
Conditions: both sexes, plasma, po, 1 mg/kg, cats, p.o., Tablet, Fasting, 1 mg/kg BW; read-out: Cmax
Measure: Cmax (ng/mL)

O=C(/C=C\n1cnc(-c2cc(C(F)(F)F)cc(C(F)(F)F)c2)n1)NNc1ccccn1 [KPT-335]
264

* * *

Assay text: Pharmacokinetics study of KPT-335 in cats (i.v. injection, p.o. capsules and tablets; UPLC-MS/MS, non-compartmental analysis)
Format: in vivo
Conditions: both sexes, cat, plasma, po, 1 mg/kg, cats, tablet p.o. 1 mg/kg BW after feeding, 4 h, mean; read-out: Plasma concentration Mean
Measure: concentration at 4 h

O=C(/C=C\n1cnc(-c2cc(C(F)(F)F)cc(C(F)(F)F)c2)n1)NNc1ccccn1 [KPT-335]
211 ng/mL

* * *

Assay text: Pharmacokinetics study of KPT-335 in cats (i.v. injection, p.o. capsules and tablets; UPLC-MS/MS, non-compartmental analysis)
Type: in vivo
Conditions: both sexes, plasma, po, 1 mg/kg, cats, p.o., Capsule, Fasting, 1 mg/kg BW; read-out: Lambda_z (converted)
Measure: k el (s⁻¹)

O=C(/C=C\n1cnc(-c2cc(C(F)(F)F)cc(C(F)(F)F)c2)n1)NNc1ccccn1
3.61e-05

* * *

Assay text: Pharmacokinetics study of KPT-335 in cats (i.v. injection, p.o. capsules and tablets; UPLC-MS/MS, non-compartmental analysis)
Format: in vivo
Conditions: both sexes, cat, plasma, iv, 1 mg/kg, cats, i.v. 1 mg/kg BW, 1 h, mean; read-out: Plasma concentration Mean
Measure: concentration at 1 h (ng/mL)

O=C(/C=C\n1cnc(-c2cc(C(F)(F)F)cc(C(F)(F)F)c2)n1)NNc1ccccn1
531

* * *

Assay text: Pharmacokinetics study of KPT-335 in cats (i.v. injection, p.o. capsules and tablets; UPLC-MS/MS, non-compartmental analysis)
Format: in vivo
Conditions: both sexes, cat, plasma, po, cats, p.o. tablets 1–2 mg/kg BW; read-out: absolute bioavailability, tablet group range
Measure: bioavailability

O=C(/C=C\n1cnc(-c2cc(C(F)(F)F)cc(C(F)(F)F)c2)n1)NNc1ccccn1
47.3 to 75.9%

* * *

Assay text: Pharmacokinetics study of KPT-335 in cats (i.v. injection, p.o. capsules and tablets; UPLC-MS/MS, non-compartmental analysis)
Type: in vivo
Conditions: female, plasma, po, 0.2 mg/kg, female cats, p.o., Capsule, Fasting, 0.2 mg/kg BW; read-out: Cmax Value females
Measure: Cmax (ng/mL)

O=C(/C=C\n1cnc(-c2cc(C(F)(F)F)cc(C(F)(F)F)c2)n1)NNc1ccccn1
31.1

* * *

Assay text: Pharmacokinetics study of KPT-335 in cats (i.v. injection, p.o. capsules and tablets; UPLC-MS/MS, non-compartmental analysis)
Format: in vivo
Conditions: both sexes, cat, plasma, po, 2 mg/kg, cats, capsule p.o. 2 mg/kg BW, 0.33 h, mean
Experimental: In this study, a parallel trial design was employed, 42 adult domestic cats (21 males and 21 females), aged 1 to 2 years and weighing 2.5 ± 0.25 kg. Cats were grouped by random number, with half male and female in each group, and all cats were determined to be systemically healthy during an initial screening visit 1 week prior to the experiment. They were acclimatized to the laboratory environment for 7 days before the study commenced. […]
Measure: concentration at 0.33 h (ng/mL)

O=C(/C=C\n1cnc(-c2cc(C(F)(F)F)cc(C(F)(F)F)c2)n1)NNc1ccccn1
8.76

Each recorded value in this set is attributed to paper PMC12078333.
